TEST TARGET: CYP3A4 (Homo sapiens)
Sequence (P08684 whole entry): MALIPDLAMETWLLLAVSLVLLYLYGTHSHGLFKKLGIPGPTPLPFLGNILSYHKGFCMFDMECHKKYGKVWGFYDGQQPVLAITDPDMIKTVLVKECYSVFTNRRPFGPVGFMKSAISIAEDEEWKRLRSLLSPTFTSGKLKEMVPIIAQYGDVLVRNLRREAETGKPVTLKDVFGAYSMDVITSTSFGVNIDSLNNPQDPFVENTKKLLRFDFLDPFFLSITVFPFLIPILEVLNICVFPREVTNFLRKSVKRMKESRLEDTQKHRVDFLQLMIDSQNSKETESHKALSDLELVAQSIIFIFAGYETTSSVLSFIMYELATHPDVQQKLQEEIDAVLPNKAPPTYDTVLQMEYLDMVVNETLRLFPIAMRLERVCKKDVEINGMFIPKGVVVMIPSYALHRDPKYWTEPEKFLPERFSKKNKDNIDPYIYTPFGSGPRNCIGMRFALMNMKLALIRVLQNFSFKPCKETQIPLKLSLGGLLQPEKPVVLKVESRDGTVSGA
MEASUREMENT NOTES: Cytochrome P450 (CYP450) Inhibition Assay, CYP3A4 (Vivid fluorescence, BOMCC substrate)
DETAILS: human, P450 Baculosomes (recombinant CYP3A4), probe BOMCC (Vivid substrate)
MEASUREMENT TYPE: inhibition at 10 µM

[ask] What value of inhibition at 10 µM has been reported for the following compound? Cl.O=C1N(C[C@H]2CCCO2)c2ccccc2C12COc1cc(O[C@@H]3CCNC3)ccc12 (stereo partly shown) [Example 11.58, hydrochloride]
[reply] < 50%

[ask] Given the compound O=C1N(Cc2ccc(OCc3ccccc3)cn2)c2ccccc2C12COc1ccc3nonc3c12 (stereo not shown) , what is its reported inhibition at 10 µM?
[reply] < 50%

[ask] What value of measured inhibition at 10 µM is listed for O=C1Nc2ccc(F)cc2C12COc1cc3c(cc12)CCO3 (stereo not shown) ?
[reply] > 50%

[ask] Which inhibition at 10 µM reading was recorded for the compound CC(C)N1CCC(CN2C(=O)C3(COc4cc5c(cc43)OCCO5)c3ccccc32)CC1.Cl (stereo not shown) [Example 11.100, hydrochloride] ?
[reply] > 50%

[ask] // returns reported inhibition at 10 µM for input C[C@@H](CN1C(=O)C2(COc3cc4c(cc32)CCO4)c2ccccc21)OCc1ccc(F)cc1 (stereo partly shown)
[reply] > 50%

[ask] Consider the compound shown here: O=C1N(Cc2ccccn2)c2ccccc2C12COc1c2ccc2c1OCCO2 (stereo not shown) What is its recorded inhibition at 10 µM?
[reply] < 50%

[ask] Using the record for CC(C)COc1ccc(-c2cccc3c2C2(COc4cc5c(cc42)CCO5)C(=O)N3C[C@H]2CCCO2)cc1 (stereo partly shown) , report its inhibition at 10 µM.
[reply] < 50%

[ask] What value of inhibition at 10 µM has been recorded for this entry: O=C(Nc1nccs1)c1ccc(CN2C(=O)C3(COc4cc5c(cc43)CCO5)c3ccccc32)cc1 (stereo not shown)
[reply] < 50%

[ask] inhibition at 10 µM for COCCOCCN1C(=O)C2(COc3cc4onc(C)c4cc32)c2ccccc21 (stereo not shown) ?
[reply] < 50%

[ask] Recorded inhibition at 10 µM for O=C1N(Cc2ncccc2C(F)(F)F)c2ccccc2C12COc1ccc3c(c12)OCCO3 (stereo not shown) , please?
[reply] < 50%

[ask] Given the compound O=C1N(Cc2ccc(-c3ccno3)cc2)c2ccccc2C12COc1cc3c(cc12)OCCO3 (stereo not shown) , what is its reported inhibition at 10 µM?
[reply] < 50%

[ask] Given O=C1N(Cc2cccnn2)c2ccccc2C12COc1cc3c(cc12)CCO3 (stereo not shown) , state its recorded inhibition at 10 µM.
[reply] < 50%

[ask] Reported inhibition at 10 µM, compound CC(=O)Nc1cccc2c1C1(COc3cc4c(cc31)OCCO4)C(=O)N2C (stereo not shown) : ____
[reply] < 50%

[ask] Record request: inhibition at 10 µM value, item COc1ncc(CN2C(=O)C3(COc4cc5c(cc43)OCO5)c3ccccc32)s1 (stereo not shown)
[reply] > 50%

[ask] Record request: inhibition at 10 µM value, item O=C1N(C[C@H]2CCCO2)c2c(F)cccc2C12COc1cc3c(cc12)CCO3 (stereo partly shown)
[reply] < 50%

[ask] Tell me the measured inhibition at 10 µM of O=C1N(Cc2c(F)cccc2C(F)(F)F)c2ccccc2C12COc1cc3c(cc12)OCCO3 (stereo not shown) , please.
[reply] < 50%

src = patent US8263606B2
